Source: patent US11161818B2

system: liver cancer cells (HepG2); assay: Anti-tumor activity test, MTT method; assay type: cell-based, human; settings: concentration 0.5 mg/ml (DMSO as solvent), 44 + 4 hours culture
PARAMETER: IC50 (µM)
One number for each entry, in µM.

| MOLECULE | ASSAYED SYSTEM | IC50, µM |
| --- | --- | --- |
| CCOC(=O)c1cn(-c2ccc(Oc3ccc(Cl)cc3)cc2)c2cc(Cl)c(F)cc2c1=O [Compound I-3] | liver cancer cells (HepG2) | 7.5 |
| O=C(O)c1cn(-c2ccc(Oc3ccc(Cl)cc3)cc2)c2cc(Cl)c(F)cc2c1=O [Compound I-26] | liver cancer cells (HepG2) | 5 |

Could you now consider this next molecule?
Problem: Which IC50 reading was recorded for the molecule CCOC(=O)c1cn(-c2ccc(Oc3ccc(OC(F)(F)F)cc3)cc2)c2cc(Cl)c(F)cc2c1=O [Compound I-12] ?
Solution: 8.5

###

tested on: E. coli; test: Bactericidal activity test, filter paper inhibition zone; type: cell-based; settings: sample concentration 10 mg/mL; filter paper diameter 6 mm; 37° C., 24 hours
PARAMETER: E. coli activity inhibition zone (mm)
Numbers only, in mm.

| MOLECULE | E. coli activity inhibition zone, mm |
| --- | --- |
| CCOC(=O)c1cn(-c2ccc(Oc3ccc(Cl)c(Cl)c3)cc2)c2cc(Cl)c(F)cc2c1=O [Compound I-15] | 21 |

Provide each entry's E. coli activity inhibition zone from the list below.
1. CCOC(=O)c1cn(-c2ccc(Oc3ccc(Cl)cc3)cc2)c2cc(Cl)c(F)cc2c1=O [Compound I-3]
2. CCOC(=O)c1cn(-c2ccc(Oc3ccc(OC)cc3)cc2)c2cc(Cl)c(F)cc2c1=O [Compound I-11]
3. CCOC(=O)c1cn(-c2ccc(Oc3ccc(C(C)(C)C)cc3)cc2)c2cc(Cl)c(F)cc2c1=O [Compound I-10]
4. CCOC(=O)c1cn(-c2ccc(Oc3ccc(OC(F)(F)F)cc3)cc2)c2cc(Cl)c(F)cc2c1=O [Compound I-12]

Solution:
24
22
24
28

Provide each entry's E. coli activity inhibition zone from the list below.
1. CCOC(=O)c1cn(-c2ccc(Oc3ccccc3)cc2)c2cc(Cl)c(F)cc2c1=O [Compound I-4]
2. CCOC(=O)c1cn(-c2ccc(Oc3ccc(C)cc3)cc2)c2cc(Cl)c(F)cc2c1=O [Compound I-8]
3. CCOC(=O)c1cn(-c2ccc(Oc3ccc(F)cc3)cc2)c2cc(Cl)c(F)cc2c1=O [Compound I-7]
4. CCOC(=O)c1cn(Cc2ccc(Oc3ccccc3C)cc2)c2cc(Cl)c(F)cc2c1=O [Compound I-22]
5. O=C(O)c1cn(-c2ccc(Oc3ccc(Cl)cc3)cc2)c2cc(Cl)c(F)cc2c1=O [Compound I-26]
6. CCOC(=O)c1cn(-c2ccc(Oc3ccc(C(F)(F)F)cc3)cc2)c2cc(Cl)c(F)cc2c1=O [Compound I-14]

Solution:
1: 27; 2: 12; 3: 17; 4: 30; 5: 29; 6: 27

Provide each entry's E. coli activity inhibition zone from the list below.
1. CCOC(=O)c1cn(Cc2ccc(Oc3ccc(Cl)cc3)cc2)c2cc(Cl)c(F)cc2c1=O [Compound I-20]
2. COc1ccc(Oc2ccc(-n3cc(C(=O)O)c(=O)c4cc(F)c(Cl)cc43)cc2)cc1 [Compound I-28]
3. CCOC(=O)c1cn(-c2ccc(Oc3ccc(C)c(C)c3)cc2)c2cc(Cl)c(F)cc2c1=O [Compound I-17]

Solution:
1: 24; 2: 25; 3: 29
